# measurement-target: Mitogen-activated protein kinase kinase kinase 3 (Homo sapiens)
# Sequence (Q99759 whole entry): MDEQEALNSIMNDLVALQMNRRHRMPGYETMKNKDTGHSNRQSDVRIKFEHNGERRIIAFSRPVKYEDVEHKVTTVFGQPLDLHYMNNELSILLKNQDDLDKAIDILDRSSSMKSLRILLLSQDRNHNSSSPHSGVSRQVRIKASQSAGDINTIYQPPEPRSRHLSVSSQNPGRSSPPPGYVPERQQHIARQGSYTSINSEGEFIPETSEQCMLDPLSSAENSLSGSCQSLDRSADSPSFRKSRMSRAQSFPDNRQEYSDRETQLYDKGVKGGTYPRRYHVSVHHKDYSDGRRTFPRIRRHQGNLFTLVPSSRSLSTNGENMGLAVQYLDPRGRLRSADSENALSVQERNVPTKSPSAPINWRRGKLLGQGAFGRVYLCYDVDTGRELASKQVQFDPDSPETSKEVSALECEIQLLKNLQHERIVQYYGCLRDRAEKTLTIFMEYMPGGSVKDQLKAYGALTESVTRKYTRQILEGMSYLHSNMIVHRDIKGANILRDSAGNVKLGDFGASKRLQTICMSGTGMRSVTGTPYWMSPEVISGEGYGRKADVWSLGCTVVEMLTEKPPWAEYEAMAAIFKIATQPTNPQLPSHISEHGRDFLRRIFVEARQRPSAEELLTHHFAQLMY
# assay-name: MEKK3–MEK5 PB1 domain interaction inhibitors – multiplex assay, wild-type MEKK3, SAR follow-up (AID 2145)
# experimental-setup: inactive by the depositor's call
measure-name: pEC50
Scale explanation: pEC50 corresponds to minus log10 of a concentration expressed in moles per litre.

Query pEC50 on Mitogen-activated protein kinase kinase kinase 3 (Homo sapiens) for `CCOc1cccc(-c2nn3c(-c4cccs4)nnc3s2)c1` 5.96

Every entry's value here was drawn from BindingDB's records for doi:10.7270/Q2Q81BH4.
